# System: Lolium rigidum (LOLRI)
# assay_comment: Post-emergence herbicidal action against LOLRI
# Assay type: in vivo
# experimental_context: dosage 320 g/ha
experimental_readout: Post-emergence action against LOLRI in % (%)
One number for each entry, in %.

{"columns": ["compound", "quantity_unit", "recorded_number"],
 "data": [
  ["COC(=O)[C@@H](C)Oc1nn(-c2ccccn2)c(-c2ccc(F)nc2)c1Br", "%", 80],
  ["COC(=O)[C@H](C)COC(=O)[C@@H](C)Oc1nn(-c2ccccn2)c(-c2ccc(F)nc2)c1Cl", "%", 90],
  ["C[C@@H](Oc1nn(-c2ccccn2)c(-c2ccc(Cl)nc2)c1Cl)C(=O)O", "%", 80],
  ["COC(=O)[C@@H](C)Oc1nn(-c2ncccc2F)c(-c2ccc(F)nc2)c1I", "%", 90],
  ["CCOC(=O)[C@@H](C)Oc1nn(-c2ncccc2F)c(-c2cncc(F)c2)c1C1CC1", "%", 90]
]}

For each of the compounds below, state Post-emergence action against LOLRI in %.
1. COC(=O)CCOC(=O)[C@@H](C)Oc1nn(-c2ccccn2)c(-c2ccc(F)nc2)c1Br
2. C[C@@H](Oc1nn(-c2nc(F)ccc2F)c(-c2cncc(F)c2)c1Cl)C(=O)O
3. O=C(O)COc1nn(-c2nc(F)ccc2F)c(-c2ccc(F)nc2)c1C1CC1
4. CCOC(=O)COc1nn(-c2ncccc2F)c(-c2ccc(F)nc2)c1F
5. COC(=O)C(C)COC(=O)C(C)Oc1nn(-c2ccccn2)c(-c2ccc(F)nc2)c1Br (stereo not shown)

Solution:
80
80
80
90
90

For each of the compounds below, state Post-emergence action against LOLRI in %.
1. O=C(COc1nn(-c2ncccc2F)c(-c2ccc(F)nc2)c1C1CC1)OCC1COC1
2. COC(=O)[C@@H](C)Oc1nn(-c2ncccc2F)c(-c2ccc(F)nc2)c1C1CC1
3. CCOC(=O)COc1nn(-c2ccccn2)c(-c2ccc(F)nc2)c1Br [Example I-02]
4. COCCOC(=O)COc1nn(-c2ncccc2C(F)(F)F)c(-c2ccc(F)nc2)c1Cl
5. CCOC(=O)COc1nn(-c2ccccn2)c(-c2ccc(F)nc2)c1Br [Example I-86]
6. COC(=O)CCOC(=O)COc1nn(-c2ccccn2)c(-c2ccc(F)nc2)c1Br
7. COC(=O)CCOC(=O)C(C)Oc1nn(-c2ccccn2)c(-c2ccc(F)nc2)c1C(F)(F)F (stereo not shown)
8. C[C@@H](Oc1nn(-c2ncccc2F)c(-c2cncc(F)c2)c1C1CC1)C(=O)O

Solution:
[90, 100, 80, 80, 100, 80, 80, 90]

For each of the compounds below, state Post-emergence action against LOLRI in %.
1. COCCOC(=O)COc1nn(-c2ncccc2C)c(-c2cncc(F)c2)c1Br
2. C[C@@H](Oc1nn(-c2ncccc2F)c(-c2ccc(F)nc2)c1Br)C(=O)O
3. CCOC(=O)COc1nn(-c2nc(F)ccc2F)c(-c2ccc(F)nc2)c1C1CC1
4. CS(=O)(=O)CCOC(=O)COc1nn(-c2ccccn2)c(-c2ccc(F)nc2)c1Br
5. COC(=O)COc1nn(-c2ncccc2F)c(-c2ccc(F)nc2)c1Cl

Solution:
[80, 80, 80, 90, 90]
